MIC values, listed per item
System: Salmonella typhi
Test: Antibacterial activity against Salmonella typhi ATCC 422 by resazurin based broth microdilution method
Format: functional, Salmonella enterica subsp. enterica serovar Typhi
Conditions: Salmonella enterica

{"columns": ["molecule", "MIC [µM]"],
 "data": [
  ["CC(C)=CCOc1cc(C)c2c(c1C(C)C)C=C(C)C(=O)C2=O", 62.5],
  ["CC1=C2OCC(C)c3ccc(C)c(c32)C(=O)C1=O (stereo not drawn)", 15.6],
  ["CCCCCCCCOc1cc(C)c2c(c1C(C)C)C=C(C)C(=O)C2=O", 31.2]
]}

###

Tested on: Salmonella typhi
Assay: Antibacterial activity against Salmonella typhi ATCC 422 at 1000 uM after 24 hrs by agar well-diffusion method
Type: functional, Salmonella enterica subsp. enterica serovar Typhi
Settings: Salmonella enterica, ATCC 422, 24 h; read-out: DIZ
Everything with zone of inhibition at 1000 µM lower than 10 mm is Not met; everything else, including exactly 10 mm, is Met.

{"columns": ["molecule", "assignedClass"],
 "data": [
  ["CCCCCCCC(=O)Oc1cc(C)c2c(c1C(C)C)C=C(C)C(=O)C2=O", "Not met"],
  ["CC(C)=CCC/C(C)=C/COc1cc(C)c2c(c1C(C)C)C=C(C)C(=O)C2=O", "Met"],
  ["CC1=C2OCC(C)c3c(O)cc(C)c(c32)C(=O)C1=O (stereo unspecified)", "Met"],
  ["CC(C)=CCOc1cc(C)c2c(c1C(C)C)C=C(C)C(=O)C2=O", "Met"],
  ["CCCCCCCCCC(=O)Oc1cc(C)c2c(c1C(C)C)C=C(C)C(=O)C2=O", "Not met"],
  ["CCCCCCCCCCCCOc1cc(C)c2c(c1C(C)C)C=C(C)C(=O)C2=O", "Met"],
  ["CCCCOc1cc(C)c2c(c1C(C)C)C=C(C)C(=O)C2=O", "Met"],
  ["CC1=Cc2c(c(C)cc(O)c2C(C)C)C(=O)C1=O", "Met"],
  ["CCCC(=O)Oc1cc(C)c2c(c1C(C)C)C=C(C)C(=O)C2=O", "Met"],
  ["C=CCOc1cc(C)c2c(c1C(C)C)C=C(C)C(=O)C2=O", "Met"],
  ["CC1=Cc2c(C(C)C)ccc(C)c2C(=O)C1=O", "Met"]
]}
